Data provenance is paper PMC3978604.

# protocol: Pharmacokinetics after single oral dosing in mouse
# Type: in vivo
# reported.conditions: plasma, single oral dose 45 mg/kg
test.readout: half-life (h)
The response must be a number in h with no trailing unit.

// lookup half-life for `Cc1ccc(Nc2cc(N[C@@H]3CCCC[C@@H]3N)nnc2C(N)=O)nc1C` 3.54

---

# protocol: Pharmacokinetics after single oral dosing in mouse
# Assay type: in vivo
# reported.conditions: plasma, single oral dose 45 mg/kg
test.readout: Tmax
Reply with the number and its unit after it.

// lookup Tmax for Cc1ccc(Nc2cc(N[C@@H]3CCCC[C@@H]3N)nnc2C(N)=O)nc1C [RO9021] 30 min

---

# protocol: Pharmacokinetics after single oral dosing in mouse
# Format: in vivo
# reported.conditions: plasma, single oral dose 45 mg/kg
test.readout: AUC (µM·h)
The response must be a number in µM·h with no trailing unit.

// lookup AUC for `Cc1ccc(Nc2cc(N[C@@H]3CCCC[C@@H]3N)nnc2C(N)=O)nc1C` 35.8

---

# protocol: Pharmacokinetics after single oral dosing in mouse
# Type: in vivo
# reported.conditions: plasma, single oral dose 5 mg/kg
test.readout: half-life
Reply with the number and its unit after it.

// lookup half-life for `Cc1ccc(Nc2cc(N[C@@H]3CCCC[C@@H]3N)nnc2C(N)=O)nc1C` 4.34 h

---

# protocol: Pharmacokinetics after single oral dosing in mouse
# Format: in vivo
# reported.conditions: plasma, single oral dose 5 mg/kg
test.readout: Cmax (nM)
The response must be a number in nM with no trailing unit.

// lookup Cmax for Cc1ccc(Nc2cc(N[C@@H]3CCCC[C@@H]3N)nnc2C(N)=O)nc1C [RO9021] 695

---

# protocol: Pharmacokinetics after single oral dosing in mouse
# Type: in vivo
# reported.conditions: plasma, single oral dose 5 mg/kg
test.readout: AUC (µM·h)
The response must be a number in µM·h with no trailing unit.

// lookup AUC for Cc1ccc(Nc2cc(N[C@@H]3CCCC[C@@H]3N)nnc2C(N)=O)nc1C [RO9021] 3.85

---

# System: human PBMCs, CD3+ T cells
# protocol: IL-2-induced STAT5 phosphorylation in CD3+ T cells (flow cytometry)
# Type: cell-based
# reported.conditions: Homo sapiens, T-cell, read-out: IC50, IL-2-induced STAT5 phosphorylation
test.readout: pIC50
Schema: pIC50 number; meaning minus log10 of the concentration expressed in molar units.

// lookup pIC50 for `Cc1ccc(Nc2cc(N[C@@H]3CCCC[C@@H]3N)nnc2C(N)=O)nc1C` 5.88

---

# protocol: Pharmacokinetics after single oral dosing in mouse
# Assay type: in vivo
# reported.conditions: plasma, single oral dose 45 mg/kg
test.readout: Cmax

// lookup Cmax for `Cc1ccc(Nc2cc(N[C@@H]3CCCC[C@@H]3N)nnc2C(N)=O)nc1C` 5.76 µM
